Measured values drawn from the RNAGym collection of RNA variant scans (doi:10.7554/elife.80360) for this set.

B1: Hairpin Ribozyme (parent)
chain: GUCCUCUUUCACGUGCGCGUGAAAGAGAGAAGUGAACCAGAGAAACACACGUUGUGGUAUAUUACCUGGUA

variants of: B1; assay: self-cleavage, relative activity (ratio to wild type); higher = more cleavage; co-transcriptional
Experimental readout: self-cleavage

• C12U G15C = 0.897
• C48U U67G = 0.0927
• A26C U58A = 0.623
• G1C U52G = 0.206
• G17C U55G = 0.196
• G34A U62G = 0.347
• U5A A35C = 0.364
• A43G C46A = 0.153
• G27U U67G = 0.111
• G13U A23G = 0.675
• U5G G17U = 0.177
• U14C C50U = 0.265
• A22U C38U = 0.41
• G27A A39G = 0.121
• G15U A47U = 0.215
• A28C G54C = 0.187
• G17A U53A = 1.36
• C10G U53G = 0.632
• U5C U14A = 0.428
• G32C C38U = 0.181
• G13A U52G = 0.5
• U5G U14C = 0.383
• U2C A11U = 0.197
• C10U A22G = 0.635
• U14A A43C = 0.15
• C6A A43C = 0.197
• C10G U20A = 0.484
• C3U A39C = 0.199
• G56C A71U = 0.119
• U58A U70A = 0.588
• G32A A45C = 0.277
• G25A C37A = 0.199
• C16U C38A = 0.172
• C16U G69U = 0.267
• G1U U58C = 0.0791
• U7C U33C = 0.157
• G40A C46A = 0.184
• C4G A64C = 0.167
• A43G G54C = 0.168
• A43C C48U = 0.16
• A45U C65A = 0.131
• A47C G54U = 0.241
• U14G U58G = 0.464
• A61C G69A = 0.159
• C38A G69U = 0.0684
• G57U U63C = 0.146
• C38A U63A = 0.0537
• C3U C48U = 0.172
• A28G A39C = 0.748
• G21A U33G = 0.104
• C38G U60G = 0.146
• A41U U63A = 0.105
• U20G G54C = 0.321
• A45C U55C = 0.244
• A36G A44G = 0.276
• C38U A43G = 0.0885
• G19A A43G = 0.16
• U14A G56A = 0.0617
• C4U G32A = 0.196
• C12U U60A = 0.766
• G1A U9C = 0.167
• U2C U62G = 0.0944
• G32C C66G = 0.114
• C4G G15U = 0.185
• C10U A44G = 0.117
• G29A G40A = 0.133
